# Tested on: Cryptococcus neoformans
# Protocol conditions: Concentration 20 uM; ASSAY_TEST Inhibition of Fungal Growth; detection method Resazurin; Absorption (OD600-OD570); plate type 384well; NBS; CORNING #3640
# Description: Antifungal activity against Cryptococcus neoformans H99 ATCC 208821 (CO-ADD:FG_002); MIC in YNB media using NBS plates, by Resazurin OD(600-570)
Results with a measured potency or affinity are listed apart.
Attribute measured: Inhibition (%)

1. CC[C@H](C)C(=O)O[C@H]1C[C@@H](C)C=C2C=C[C@H](C)[C@H](CC[C@@H]3C[C@@H](O)CC(=O)O3)[C@H]21 ... -5.68
2. CC(=O)O.CC(C)C[C@H](NC(=O)[C@@H](COC(C)(C)C)NC(=O)[C@H](Cc1ccc(O)cc1)NC(=O)[C@H](CO)NC(=O)[C@H](Cc1c[nH]c2ccccc12)NC(=O)[C@H](Cc1c[nH]cn1)NC(=O)[C@H]1CCC(=O)N1)C(=O)N[C@H](CCCNC(=N)N)C(=O)N1CCC[C@@H]1C(=O)NNC(N)=O ... -3.07
3. CN1CCN(c2nc3cc(C(F)(F)F)ccc3n3cccc23)CC1.O=C(O)/C=C\C(=O)O.O=C(O)/C=C\C(=O)O ... 2.72
4. CCS(=O)(=O)CCn1c([N+](=O)[O-])cnc1C ... -11.27
5. CC(COc1ccccc1)NC(C)C(O)c1ccc(O)cc1.Cl (stereo unspecified) [ISOXSUPRINE HYDROCHLORIDE] ... -2.3
6. COC(=O)CCc1ccc(OCC(O)CNC(C)C)cc1.Cl (stereo unspecified) [ESMOLOL HYDROCHLORIDE] ... -7.33

---

As shown below, each of these compounds has a reported Inhibition value.
# System: Candida albicans
# Protocol conditions: 20 µM
# Description: Antifungal activity against Candida albicans ATCC 90028 (CO-ADD:FG_001); MIC in YNB media using NBS plates, by OD630
Potency and affinity values are given separately.
Attribute measured: Inhibition

1) CCOC(=O)[C@@H](CCc1ccccc1)N[C@@H](C)C(=O)N1CCC[C@H]1C(=O)O.O=C(O)/C=C\C(=O)O ... 0.69%
2) CC(CCCCC(=O)Nc1ccc(C(F)(F)F)cc1)NCCc1c[nH]cn1.O=C(O)/C=C\C(=O)O.O=C(O)/C=C\C(=O)O (centres undefined) ... 2.76%
3) CC1(C)O[C@@H]2[C@@H](CO[C@@]3(COS(N)(=O)=O)OC(C)(C)O[C@@H]23)O1 [TOPIRAMATE] ... 2.83%
4) CC(C)NCC(O)COc1ccc(CCOCC2CC2)cc1.Cl (centres undefined) [BETAXOLOL HYDROCHLORIDE] ... 2.88%

---

# Test system: Candida albicans
# Protocol conditions: 20 µM
Entries with a potency or affinity are not part of this list.
As shown below, each of these compounds has a reported Inhibition value.
Attribute measured: Inhibition (%)

1) OCCN(CCO)c1nc(N2CCCCC2)c2nc(N(CCO)CCO)nc(N3CCCCC3)c2n1 ... 2.59
2) CC(N)(Cc1ccc(O)c(O)c1)C(=O)O (stereo not drawn) [METHYLDOPA (RACEMIC)] ... 3.32
3) CC(=O)[C@@]1(O)CC[C@H]2[C@@H]3C[C@H](C)C4=CC(=O)CC[C@]4(C)[C@H]3CC[C@@]21C ... 2.87
4) CN(C)CCOC(C)(c1ccccc1)c1ccccn1.O=C(O)CCC(=O)O (centres undefined) [DOXYLAMINE SUCCINATE] ... 0.07

---

# Test system: Cryptococcus neoformans
# Protocol conditions: Concentration 20 uM; ASSAY_TEST Inhibition of Fungal Growth; detection method Resazurin; Absorption (OD600-OD570); plate type 384well; NBS; CORNING #3640
Entries with a potency or affinity are not part of this list.
Attribute measured: Inhibition (%)

1. CC(C)[C@H]1CC[C@H](C(=O)N[C@H](Cc2ccccc2)C(=O)O)CC1 [NATEGLINIDE] ... -0.58
2. Nc1nc2c(ncn2COCCO)c(=O)[nH]1 ... -1.27
3. Nc1nc2c(ncn2COC(CO)CO)c(=O)[nH]1 ... -0.42
4. CNC(=C[N+](=O)[O-])NCCSCc1csc(CN(C)C)n1 ... -0.19
5. CN(C)CCOC(C)(c1ccccc1)c1ccccn1.O=C(O)CCC(=O)O (stereo not drawn) [DOXYLAMINE SUCCINATE] ... -8.18
6. COc1cc(C)c(/C=C/C(C)=C/C=C/C(C)=C/C(=O)O)c(C)c1C ... -7.56
7. CCOC(=O)C1=C(C)NC(C)=C(C(=O)OC)C1c1cccc(Cl)c1Cl (stereo not drawn) ... -9.45
8. CS(=O)(=O)c1ccc(C2=C(c3ccccc3)C(=O)OC2)cc1 ... -2.65
9. CN1CCCCC1CCN1c2ccccc2Sc2ccc([S+](C)[O-])cc21.O=S(=O)(O)c1ccccc1 (stereo not drawn) [MESORIDAZINE BESYLATE] ... 2.61
10. C[C@@H]1C[C@H]2[C@@H]3C[C@H](F)C4=CC(=O)C(Cl)=C[C@]4(C)[C@@]3(F)[C@@H](O)C[C@]2(C)[C@@]1(O)C(=O)CO ... -4.6
11. Cc1ccc(N(CC2=NCCN2)c2cccc(O)c2)cc1 ... -2.31
12. Clc1ccc2c(c1)C(N1CCNCC1)=Nc1ccccc1O2 ... -1.42
13. Nc1ccc2cn[nH]c2c1 ... 6.83
14. CCCNC(C)C(=O)Nc1ccccc1C.Cl (stereo not drawn) [PRILOCAINE HYDROCHLORIDE] ... -8.37
15. CCCCC(=O)N(Cc1ccc(-c2ccccc2-c2nnn[nH]2)cc1)[C@H](C(=O)O)C(C)C ... -1.97
16. Cl.O=C(O)/C=C/c1ccc(Cn2ccnc2)cc1 ... -5.32
17. CC[C@H](C)C(=O)O[C@H]1C[C@H](O)C=C2C=C[C@H](C)[C@H](CC[C@@H](O)C[C@@H](O)CC(=O)[O-])[C@H]21.[Na+] [PRAVASTATIN SODIUM] ... -0.35
18. Cc1occc(=O)c1O ... -2.15
